# assay-target: HLA-A*1101 (human)
# experiment: competition with 125I-labelled standard peptide for purified HLA-A*1101, gel filtration
measurement-type: binding affinity ratio (IC50 of the standard peptide / IC50 of the test peptide)

[
  {
    "binder": "RLKAICIEK (modifications not checked) [… (HPV16 E1, position 109, 9 amino acids)]",
    "assay-result": 0.051
  },
  {
    "binder": "SLFGMSLMK (modifications not checked) [… (HPV16 E1, position 484, 9 amino acids)]",
    "assay-result": 7.1
  },
  {
    "binder": "TAQEAKQHR (modifications not checked) [… (HPV16 E1, position 72, 9 amino acids)]",
    "assay-result": 0.0025
  },
  {
    "binder": "NVLKTSNAK (modifications not checked) [… (HPV16 E1, position 196, 9 amino acids)]",
    "assay-result": 0.0015
  },
  {
    "binder": "SVICFVNSK (modifications not checked) [… (HPV16 E1, position 497, 9 amino acids)]",
    "assay-result": 0.0002
  }
]
